Assay notes: qHTS Assay for Lipid Storage Modulators in Drosophila S3 Cells;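 also: cells counted by Cell Tracker Red CMTPX staining in the red channel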
Conditions used: BODIPY lipid droplet fluorescence, 18-24 h, cells fed with added oleic acid; measured here: cell count max response
The campaign covered roughly 320,000 compounds. About 2,100 (0.66%) were called active. Roughly 53% stayed inconclusive and do not appear here. The list comes from a sample in which actives are over-represented; it also holds close analogues and randomly drawn compounds.
Parameter measured: cell number change (%)

[[record]]
molecule = "COc1ccccc1/C=C/C(=O)NCc1cccnc1"
units_of_measure = "%"
observed_result = -13.8

[[record]]
molecule = "COc1ccccc1/C=C/C(=O)Nc1cccnc1"
units_of_measure = "%"
observed_result = -14.6

[[record]]
molecule = "O=C(CCN1c2ccccc2Sc2ccccc21)Oc1ccccc1"
units_of_measure = "%"
observed_result = -0.775

[[record]]
molecule = "COC(=O)/C=C/C(=O)Nc1cccnc1"
units_of_measure = "%"
observed_result = -5.59

[[record]]
molecule = "O=C(Cc1ccccc1)NCC(=O)OCC(=O)c1cccc([N+](=O)[O-])c1"
units_of_measure = "%"
observed_result = 9.41

[[record]]
molecule = "Cc1ccc(C(=O)C2=C(O)C(=O)N(Cc3cccnc3)C2c2ccc(Br)cc2)o1 (stereo not given)"
units_of_measure = "%"
observed_result = 4.99

[[record]]
molecule = "O=C(CCl)N1c2ccccc2SCC1c1ccccc1 (stereo not given)"
units_of_measure = "%"
observed_result = -4.27

[[record]]
molecule = "COc1ccc(/C=C/C(=O)c2ccc(Cl)cc2)c(OC)c1"
units_of_measure = "%"
observed_result = -5.6

[[record]]
molecule = "CCOC(=O)CC(NC(=O)c1cc2ccccc2oc1=O)c1cccc([N+](=O)[O-])c1 (stereo not given)"
units_of_measure = "%"
observed_result = 11.6

[[record]]
molecule = "CC1=CC(=Nc2c(C)n(C)n(-c3ccccc3)c2=O)C=CC1=O"
units_of_measure = "%"
observed_result = 4.9

